// values below are reported pKi
# systemUnderTest: Adenosine receptor A1 (Homo sapiens)
# Sequence (P30542 whole entry): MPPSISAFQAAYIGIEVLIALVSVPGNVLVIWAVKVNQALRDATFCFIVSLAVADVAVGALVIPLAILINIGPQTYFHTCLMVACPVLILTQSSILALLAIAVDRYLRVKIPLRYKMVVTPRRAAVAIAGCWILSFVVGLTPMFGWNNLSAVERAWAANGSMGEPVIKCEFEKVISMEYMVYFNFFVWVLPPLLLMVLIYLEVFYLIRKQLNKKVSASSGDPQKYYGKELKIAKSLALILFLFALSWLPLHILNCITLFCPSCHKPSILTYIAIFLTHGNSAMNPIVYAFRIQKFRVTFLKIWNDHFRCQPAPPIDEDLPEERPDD
// pKi here means minus log10 of the molar concentration (mol/L)

# structureString, pKi
records = [
    ("Nc1nc(OCCc2c[nH]c3ccc(I)cc23)nc2c1ncn2[C@@H]1O[C@H](CO)[C@@H](O)[C@H]1O", 6.46),
    ("Nc1nc(OCCc2c[nH]c3ccccc23)nc2c1ncn2[C@@H]1O[C@H](CO)[C@@H](O)[C@H]1O", 6.83),
    ("Nc1nc(OCCCc2ccccc2)nc2c1ncn2[C@@H]1O[C@H](CO)[C@@H](O)[C@H]1O", 6.02),
    ("Nc1nc(OCCc2ccsc2)nc2c1ncn2[C@@H]1O[C@H](CO)[C@@H](O)[C@H]1O", 6.55),
    ("Nc1nc(OCCc2ccc3ccccc3c2)nc2c1ncn2[C@@H]1O[C@H](CO)[C@@H](O)[C@H]1O", 6.85),
]

Query :: Please state recorded pKi (tested on Adenosine receptor A1 (Homo sapiens)) of Nc1nc(OCCc2ccccc2F)nc2c1ncn2[C@@H]1O[C@H](CO)[C@@H](O)[C@H]1O
Result :: 6.48

Query :: Observed pKi on Adenosine receptor A1 (Homo sapiens) for CCNc1nc(OCCc2c[nH]c3ccccc23)nc2c1ncn2[C@@H]1O[C@H](CO)[C@@H](O)[C@H]1O , please.
Result :: 6.19

* * *

Collected Efficacy values appear next to each entry.
# systemUnderTest: UniProtKB P0DMS8
# Sequence (P0DMS8 whole entry): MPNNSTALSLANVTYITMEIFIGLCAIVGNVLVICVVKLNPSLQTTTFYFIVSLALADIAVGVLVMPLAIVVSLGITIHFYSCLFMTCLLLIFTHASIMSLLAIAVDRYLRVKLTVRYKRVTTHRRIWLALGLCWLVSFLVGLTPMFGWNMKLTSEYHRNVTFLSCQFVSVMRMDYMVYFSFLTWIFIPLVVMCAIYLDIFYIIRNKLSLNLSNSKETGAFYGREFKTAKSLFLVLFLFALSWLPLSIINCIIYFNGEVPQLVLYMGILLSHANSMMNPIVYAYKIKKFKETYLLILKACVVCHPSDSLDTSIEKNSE
# methodDescription: Maximum efficacy at human recombinant adenosine A3 receptor expressed in CHO cells assessed as inhibition of cAMP production at 10 uM relative to NECA
# Type: functional, cell-based
Just the number please, in %, no unit attached.

Look over these answered cases.
# structureString, systemUnderTest, unitsText, Efficacy
records = [
    ("Cc1ccc(S(=O)(=O)n2cc(CCOc3nc(NC(=N)N)c4ncn([C@@H]5O[C@H](CO)[C@@H](O)[C@H]5O)c4n3)c3ccccc32)cc1", "UniProtKB P0DMS8", "%", 24),
    ("Cc1ccc(S(=O)(=O)n2cc(CCOc3nc(N)c4ncn([C@@H]5O[C@H](CO)[C@@H](O)[C@H]5O)c4n3)c3ccccc32)cc1", "UniProtKB P0DMS8", "%", 0),
    ("Nc1nc(OCCc2cccs2)nc2c1ncn2[C@@H]1O[C@H](CO)[C@@H](O)[C@H]1O", "UniProtKB P0DMS8", "%", 80),
]

Next item in the queue.
Query :: What Efficacy appears in the records for this compound with UniProtKB P0DMS8? Nc1nc(OCCc2c[nH]c3c(Br)cccc23)nc2c1ncn2[C@@H]1O[C@H](CO)[C@@H](O)[C@H]1O
Result :: -8

* * *

# systemUnderTest: UniProt P29274
# Sequence (P29274 whole entry): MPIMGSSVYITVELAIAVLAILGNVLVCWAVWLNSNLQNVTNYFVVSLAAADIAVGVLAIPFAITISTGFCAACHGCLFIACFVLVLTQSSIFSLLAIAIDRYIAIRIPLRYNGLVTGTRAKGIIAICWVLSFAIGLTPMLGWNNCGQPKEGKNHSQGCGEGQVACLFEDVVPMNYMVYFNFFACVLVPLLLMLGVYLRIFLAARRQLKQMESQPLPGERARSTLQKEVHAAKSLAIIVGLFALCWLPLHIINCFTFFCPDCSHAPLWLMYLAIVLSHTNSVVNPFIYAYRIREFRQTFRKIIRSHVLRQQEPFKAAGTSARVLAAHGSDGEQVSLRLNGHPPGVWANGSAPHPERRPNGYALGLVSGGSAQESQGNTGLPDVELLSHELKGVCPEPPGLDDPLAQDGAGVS
measurementKind: Ki (nM)
Could you give me the number in nM? Just the number is fine.

// worked examples, Ki included
# structureString, systemUnderTest, unitsText, Ki
rows = [
    ("Nc1nc(OCCc2cccs2)nc2c1ncn2[C@@H]1O[C@H](CO)[C@@H](O)[C@H]1O", "UniProt P29274", "nM", 10.9),
    ("Nc1nc(OCCC2CCCCC2)nc2c1ncn2[C@@H]1O[C@H](CO)[C@@H](O)[C@H]1O", "UniProt P29274", "nM", 579),
    ("Nc1nc(OCCc2c[nH]c3ccc(Br)cc23)nc2c1ncn2[C@@H]1O[C@H](CO)[C@@H](O)[C@H]1O", "UniProt P29274", "nM", 502),
    ("Nc1nc(OCCc2c[nH]c3ccc(F)cc23)nc2c1ncn2[C@@H]1O[C@H](CO)[C@@H](O)[C@H]1O", "UniProt P29274", "nM", 370),
    ("N=C(N)Nc1nc(OCCc2c[nH]c3ccccc23)nc2c1ncn2[C@@H]1O[C@H](CO)[C@@H](O)[C@H]1O", "UniProt P29274", "nM", 277),
    ("Nc1nc(OCCc2ccsc2)nc2c1ncn2[C@@H]1O[C@H](CO)[C@@H](O)[C@H]1O", "UniProt P29274", "nM", 13.3),
    ("Cc1ccc(S(=O)(=O)n2c(CCOc3nc(N)c4ncn([C@@H]5O[C@H](CO)[C@@H](O)[C@H]5O)c4n3)cc3ccccc32)cc1", "UniProt P29274", "nM", 2570),
]

Now for another entry.
Query :: Please look up its Ki: Nc1nc(OCCc2c[nH]c3ccccc23)nc2c1ncn2[C@@H]1O[C@H](CO)[C@@H](O)[C@H]1O
Result :: 45
